System: Bacillus subtilis DB104 (SP-AmyQ fusion secretion)
Experiment: AmyQ secretion efficiency, weighted average sort bin (1 = best secretion, 10 = worst) (bin number (weighted average, 1-10)); higher = lower secretion efficiency

- sequenceChain: "MRKTRRKKKRGLMMFGTITAASASPD"
  AmyQ secretion efficiency: 5.82
- sequenceChain: "MKRKKLCVMMLLFSAIASFPVSAQAKDQ"
  AmyQ secretion efficiency: 2.65
- sequenceChain: "MAIIIAIIAAVIVIAALITFNVLNASPG"
  AmyQ secretion efficiency: 6.68
- sequenceChain: "MKWMCMICCAAVLLAMIGAAQAEAV"
  AmyQ secretion efficiency: 3.44
- sequenceChain: "MLCVMMLLFSAIASFPVSAQRKDQ"
  AmyQ secretion efficiency: 6.75
- sequenceChain: "MKKKLAAGLTASAIVGTTLVRKKKAEAATI"
  AmyQ secretion efficiency: 8.06
- sequenceChain: "MTKKAWFLPLVCVLLISGWLAPAASASAQTK"
  AmyQ secretion efficiency: 1.59
- sequenceChain: "MKKKQVMLALTAAAGLGLTALHSAPAEKAAPL"
  AmyQ secretion efficiency: 6.32
- sequenceChain: "MKKCKRRKTTIALILSLSTNAFAKNT"
  AmyQ secretion efficiency: 7.38
- sequenceChain: "MKRSINSIFITCLLITLLTMGGMIASPASAAGT"
  AmyQ secretion efficiency: 1.88
- sequenceChain: "MKKRFFGPIILAFILFAGAIVIPS"
  AmyQ secretion efficiency: 5.76
- sequenceChain: "MKKWIYVVLVLSIAGIGGFSVHYASS"
  AmyQ secretion efficiency: 8.11
- sequenceChain: "MKRFSTAYLKKRKLCSAAVFLIGAPSRALGAEV"
  AmyQ secretion efficiency: 6.51
- sequenceChain: "MKKLFIFSAILTLSIFAPNETFAQTA"
  AmyQ secretion efficiency: 2.72
- sequenceChain: "MLKKKWMLMVGLLAGCLAAGGFSYNAFATEN"
  AmyQ secretion efficiency: 4.46
- sequenceChain: "MNKPTKLFSTLALAAGMTAAAAGGAGTCHAQQP"
  AmyQ secretion efficiency: 1.79
- sequenceChain: "MKLAKRVSALTPSTTLAITAKYKEL"
  AmyQ secretion efficiency: 5.07
- sequenceChain: "MKIRKILLSSALSFGMLISAVPALGAGT"
  AmyQ secretion efficiency: 3.88
- sequenceChain: "MRRKKKKVVSALSISALALSVSGVASAHEI"
  AmyQ secretion efficiency: 3.9
- sequenceChain: "MKQGKFSRYYKSLLMLTLVVAPKEKAEAASS"
  AmyQ secretion efficiency: 6.74
- sequenceChain: "MKLKKRVSMFLVALTMCGGLFVTPSFPPTAPAKAVKT"
  AmyQ secretion efficiency: 5.25
- sequenceChain: "MIVIILLFISIIVFLVVTIQPQPS"
  AmyQ secretion efficiency: 8.71
- sequenceChain: "MKKWLIIAVSLAIAIVLFMYTKGEKKAAGM"
  AmyQ secretion efficiency: 5.84
- sequenceChain: "MAIIIAIIAAVIVIAALITFIVIVIRNASPG"
  AmyQ secretion efficiency: 6.93
- sequenceChain: "MKRFSTLLLGILCSAAVFLIGAPSRALGAEV"
  AmyQ secretion efficiency: 2.96
- sequenceChain: "MTMLRKIIGWILLLCIIKKKAFTVIASGKEV"
  AmyQ secretion efficiency: 7.58
- sequenceChain: "MKMKSGMEQAVSVLLLLSRLPVQASLTSR"
  AmyQ secretion efficiency: 6.52
- sequenceChain: "MFSIGSIMACLILFSFTITTFINTETISAFSN"
  AmyQ secretion efficiency: 5.65
